Data origin: ChEMBL document CHEMBL3352636

Listing: GI50 of selected compounds
# PROTOCOL_DETAILS: Growth inhibition of human MiaPaCa cells after 48 hrs by SRB assay
# Format: functional
# ASSAY_CONDITIONS: MIA PaCa-2, 48 h
Note: unit nM is implicit; provide only the numeric part.

Solved entries (count: 2):
Cc1ccc(C(=O)N/N=C/C2=C(Cl)c3ccccc3CCC2)cc1: 10000
COc1cc(C(=O)N/N=C/C2=C(Cl)c3cc(C)c(C)cc3CCC2)c([N+](=O)[O-])cc1OC: 1600

In one line, give reported GI50 of the entry `COc1cccc2c1C(=O)c1c(O)c3c(c(O)c1C2=O)C[C@@](O)(C(=O)CO)C[C@@H]3O[C@H]1C[C@H](N)[C@H](O)[C@H](C)O1` .
97

In one line, give reported GI50 of the entry `COc1cc(/C=N\NC(=O)C2=C(Cl)c3cc(C)c(C)cc3CCC2)cc(OC)c1OC` .
5800

In one line, give reported GI50 of the entry `COc1cccc(C(=O)N/N=C/C2=C(Cl)c3ccccc3CCC2)c1C` .
700
